Reference source for all entries: patent US5696117A

Target: Kinase A and SpoOF (Bacillus subtilis)
Construct: made in house; host or cells: recombinant E. coli (overexpression)
Sequence (P16497 1-606): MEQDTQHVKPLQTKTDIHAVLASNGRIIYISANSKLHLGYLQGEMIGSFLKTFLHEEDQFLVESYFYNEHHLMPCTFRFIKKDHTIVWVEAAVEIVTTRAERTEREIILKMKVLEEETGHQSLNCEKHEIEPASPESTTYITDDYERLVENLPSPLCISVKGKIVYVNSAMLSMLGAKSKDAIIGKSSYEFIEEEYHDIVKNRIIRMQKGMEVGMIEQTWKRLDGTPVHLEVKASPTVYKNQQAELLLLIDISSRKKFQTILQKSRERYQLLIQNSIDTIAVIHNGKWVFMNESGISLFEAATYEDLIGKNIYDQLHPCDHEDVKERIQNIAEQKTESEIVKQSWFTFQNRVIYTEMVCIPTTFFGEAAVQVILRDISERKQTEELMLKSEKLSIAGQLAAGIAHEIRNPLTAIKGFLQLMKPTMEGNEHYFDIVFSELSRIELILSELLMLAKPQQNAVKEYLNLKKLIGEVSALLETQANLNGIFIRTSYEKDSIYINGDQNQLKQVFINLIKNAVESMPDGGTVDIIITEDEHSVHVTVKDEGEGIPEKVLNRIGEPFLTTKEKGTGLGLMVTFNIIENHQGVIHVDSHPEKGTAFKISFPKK
Test: Autophosphorylation of Kinase A and Transphosphorylation of SpoOF Assay (HPK in vitro assay)
Format: biochemical
Conditions: inhibition of KinA autophosphorylation / SpoOF transphosphorylation, inhibitor concentrations from 1 to 500 μM
Field: IC50. Provide a value for each of the molecules that follow.

### Prompt Query: IC50; subject: N=C(N)NCCc1ccc(OCCC2Oc3ccc(Cl)cc3N(Cc3cccc(Cl)c3)C2=O)cc1 (stereo not shown)
### Response 9 µM

### Prompt May I ask what IC50 has been recorded for N=C(N)NCCc1ccc(OCCC2Oc3ccccc3N(Cc3cccc(OCc4ccccc4)c3)C2=O)cc1 (stereo not shown) ?
### Response 24 µM

### Prompt Consider the molecule shown here: N=C(N)NCCc1ccc(OCCC2Oc3ccncc3N(Cc3cccc(Cl)c3)C2=O)cc1 (stereo not shown) What is its recorded IC50?
### Response 174 µM

### Prompt What value of IC50 has been reported for the following molecule? NCCc1ccc(OCCC2Oc3ccccc3N(Cc3ccc(Cl)cc3)C2=O)cc1 (stereo not shown)
### Response 61 µM

---

Molecular target: Kinase A and SpoOF (Bacillus subtilis, UniProt P16497)
Construct: made in house; host or cells: recombinant E. coli (overexpression)
Sequence (P16497 1-606): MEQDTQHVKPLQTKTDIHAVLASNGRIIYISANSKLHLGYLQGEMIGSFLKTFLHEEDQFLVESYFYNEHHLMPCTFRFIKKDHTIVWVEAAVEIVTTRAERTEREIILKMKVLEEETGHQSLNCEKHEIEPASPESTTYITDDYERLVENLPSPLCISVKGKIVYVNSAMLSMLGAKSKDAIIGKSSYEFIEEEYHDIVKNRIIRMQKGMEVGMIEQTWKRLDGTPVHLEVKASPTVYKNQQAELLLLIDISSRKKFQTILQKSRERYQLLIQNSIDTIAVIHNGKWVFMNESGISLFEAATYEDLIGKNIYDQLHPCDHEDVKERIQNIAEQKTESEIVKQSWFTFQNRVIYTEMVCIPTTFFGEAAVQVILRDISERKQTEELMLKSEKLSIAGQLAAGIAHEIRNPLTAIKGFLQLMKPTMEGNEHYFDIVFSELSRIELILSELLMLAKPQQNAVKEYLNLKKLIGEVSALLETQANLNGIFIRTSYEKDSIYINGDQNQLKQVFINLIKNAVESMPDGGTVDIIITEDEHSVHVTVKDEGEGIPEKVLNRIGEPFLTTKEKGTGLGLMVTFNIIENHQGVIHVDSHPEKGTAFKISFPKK
Assay: Autophosphorylation of Kinase A and Transphosphorylation of SpoOF Assay (HPK in vitro assay)
Assay type: biochemical
Details: inhibition of KinA autophosphorylation / SpoOF transphosphorylation, inhibitor concentrations from 1 to 500 μM
experimentalReadout: IC50 (µM)
Respond with the bare value in µM.

### Prompt Quick check: IC50 on Kinase A and SpoOF (Bacillus subtilis, UniProt P16497), item O=C(O)CCc1cccc(OCCC2Oc3ccccc3N(Cc3cccc(Cl)c3)C2=O)c1 (stereo not shown) ?
### Response 251

### Prompt Find IC50 (Kinase A and SpoOF (Bacillus subtilis, UniProt P16497)) for the entry N=C(N)NCCc1ccc(OCCC2Oc3ccccc3N(Cc3cc(Cl)cc(Cl)c3)C2=O)cc1 (stereo not shown)
### Response 24

### Prompt Please tell me: IC50 of N=C(N)NCCc1ccc(OCCC2Oc3ccccc3N(Cc3cccc(Cl)c3)C2=O)cc1 (stereo not shown) , system Kinase A and SpoOF (Bacillus subtilis, UniProt P16497)?
### Response 30

### Prompt Notebook: pull reported IC50 for Kinase A and SpoOF (Bacillus subtilis, UniProt P16497), entry N=C(N)NCCc1ccc(OCCC2Oc3ccccc3N(Cc3ccccc3Cl)C2=O)cc1 (stereo not shown)
### Response 16

---

molecular target: Kinase A and SpoOF (Bacillus subtilis); construct: made in house; host or cells: recombinant E. coli (overexpression); assay: Autophosphorylation of Kinase A and Transphosphorylation of SpoOF Assay (HPK in vitro assay); format: biochemical; conditions: inhibition of KinA autophosphorylation / SpoOF transphosphorylation, inhibitor concentrations from 1 to 500 μM
experimentalReadout: IC50 (µM)
// note: answer is a bare numeric in µM

### Prompt Which IC50 value belongs to N=C(N)NCCc1ccc(OCCC2CN(Cc3cccc(Cl)c3)c3ccccc3O2)cc1 (centres unmarked) [Compound 23] ?
### Response 17

### Prompt Suppose we examine the compound CC(C)(C)OC(=O)NCc1ccc(OCCC2Oc3ccccc3N(Cc3ccccc3Cl)C2=O)cc1 (centres unmarked) [Compound 13] ; what IC50 value has been reported?
### Response 272

### Prompt Need IC50 of COC(=O)c1cccc(CN2C(=O)C(CCOc3ccc(CCN)cc3)Oc3ccccc32)c1 (centres unmarked) [Compound 106] , thanks.
### Response 166

### Prompt Would you kindly share the measured IC50 for N=C(N)NCCc1ccc(OCCC2Oc3ccccc3N(Cc3cccc4ccccc34)C2=O)cc1 (centres unmarked) [Compound 43] ?
### Response 13

### Prompt Entry CC(C)(C)OC(=O)NCc1cccc(OCCC2Oc3ccccc3N(Cc3cccc(Cl)c3)C2=O)c1 (centres unmarked) [Compound 73] has what IC50?
### Response 354

### Prompt Using the record for NCCc1ccc(OCCC2Oc3ccccc3N(Cc3cccc(C(=O)O)c3)C2=O)cc1 (centres unmarked) [Compound 112] , report its IC50.
### Response 254

### Prompt Which measured IC50 value corresponds to NCCCc1ccc(OCCC2Oc3ccccc3N(Cc3cccc(Cl)c3)C2=O)cc1 (centres unmarked) [Compound 76] ?
### Response 32

### Prompt May I ask what IC50 has been recorded for CC(C)(C)OC(=O)N=C(NCCc1ccc(OCCC2Oc3cc([N+](=O)[O-])ccc3N(Cc3cccc(Cl)c3)C2=O)cc1)NC(=O)OC(C)(C)C (centres unmarked) [Compound 80] ?
### Response 162

---

target: Kinase A and SpoOF (Bacillus subtilis); construct: made in house; host or cells: recombinant E. coli (overexpression); experiment: Autophosphorylation of Kinase A and Transphosphorylation of SpoOF Assay (HPK in vitro assay); type: biochemical; details: inhibition of KinA autophosphorylation / SpoOF transphosphorylation, inhibitor concentrations from 1 to 500 μM
Class membership depends on IC50 alone; the intervals are bottom: < 30 µM; middle: ≥ 30 µM and < 70 µM; top: ≥ 70 µM

### Prompt For CC(C)(C)OC(=O)NCCc1cccc(OCCC2Oc3ccccc3N(Cc3cccc(Cl)c3)C2=O)c1 (stereo not shown) [Compound 69] , which IC50 bin applies?
### Response top

### Prompt Could you place CC(C)(C)OC(=O)NCCc1cccc(OCCC2Oc3ccccc3N(Cc3ccc(Cl)cc3)C2=O)c1 (stereo not shown) [Compound 7] in its proper category? Many thanks.
### Response top

### Prompt // return the class label for Cl.N=C(N)NCCc1ccc(OCCC2Oc3cc([N+](=O)[O-])ccc3N(Cc3ccccc3Cl)C2=O)cc1 (stereo not shown) [Compound 87]
### Response bottom

### Prompt Band assignment needed for N=C(N)NCCc1ccc(OCCC2Oc3ccccc3N(Cc3ccc([N+](=O)[O-])cc3)C2=O)cc1 (stereo not shown) [Compound 139] please.
### Response bottom

### Prompt Form field 'band' for N=C(N)NCCc1ccc(OCCC2Oc3cccnc3N(Cc3cccc(Cl)c3)C2=O)cc1 (stereo not shown) [Compound 25]
### Response middle

### Prompt Exam item: assign CC(C)(C)OC(=O)NCc1ccc(OCCC2Oc3ccccc3N(Cc3cccc(Cl)c3)C2=O)cc1 (stereo not shown) [Compound 1] to the correct category.
### Response top

### Prompt Using the reported IC50, which band applies to NCCc1cccc(OCCC2Oc3ccccc3N(Cc3ccccc3Cl)C2=O)c1 (stereo not shown) [Compound 16] ?
### Response top

### Prompt Note: place this compound into its band. Item: N=C(N)NCc1ccc(OCCC2Oc3ccccc3N(Cc3ccccc3Cl)C2=O)cc1 (stereo not shown) [Compound 19]
### Response bottom

### Prompt Which bin should I file N=C(N)NCCc1ccc(OCCC2Oc3cc(F)ccc3N(Cc3cccc(Cl)c3)C2=O)cc1 (stereo not shown) [Compound 55] under?
### Response bottom

### Prompt Sort into band: N=C(N)NCCc1ccc(OCCC2Oc3cc([N+](=O)[O-])ccc3N(Cc3cccc([N+](=O)[O-])c3)C2=O)cc1 (stereo not shown) [Compound 91]
### Response middle

### Prompt Which class does N=C(N)NCCc1ccc(OCCC2Oc3ccccc3N(Cc3ccc(-c4ccccc4)cc3)C2=O)cc1 (stereo not shown) [Compound 38] fall in?
### Response middle

### Prompt Into which category would you place N=C(N)NCCc1ccc(OCCC2CN(Cc3ccc(Cl)cc3)c3ccccc3O2)cc1 (stereo not shown) [Compound 22] ?
### Response middle

### Prompt // return the class label for NCCCc1ccc(OCCC2Oc3ccccc3N(Cc3ccc(Cl)cc3)C2=O)cc1 (stereo not shown) [Compound 142]
### Response middle

### Prompt Which band does COc1cccc(CN2C(=O)C(CCOc3ccc(CCNC(=N)N)cc3)Oc3ccccc32)c1 (stereo not shown) [Compound 33] fall in?
### Response top

### Prompt Sort into band: N=C(N)NCCc1ccc(OCCC2Oc3ccccc3N(Cc3cccc([N+](=O)[O-])c3)C2=O)cc1 (stereo not shown) [Compound 95]
### Response middle
